FYI, the data here is from ChEMBL document CHEMBL3217506.

Catalogue of ID50 values
Biological target: UniProt P25779
Assay: Inhibition of Trypanosoma cruzi cruzipain using Z-Phe-Arg-AMC as substrate at pH 7.4 after 10 mins by spectrofluorimetry relative to untreated control

Known results for compounds:
{"sample smiles": "[O-][n+]1onc2ccc(CN3CCN(/C(=N/c4ccccc4)NCc4ccco4)CC3)cc21", "measured property": "ID50", "measured": "100 µM"}
{"sample smiles": "N=C(N)N/N=C/c1ccc(OCc2ccc3no[n+]([O-])c3c2)cc1", "measured property": "ID50", "measured": "32 µM"}
{"sample smiles": "N=C(N/N=C/c1ccc(O)cc1)SCc1ccc2no[n+]([O-])c2c1", "measured property": "ID50", "measured": "64.5 µM"}

Data request: // returns reported ID50 for input `CC/C(=N\N=C(\N)S)c1cccc(Br)c1`
Data returned: 0.1 µM

Data request: Consider the compound shown here: `[O-][n+]1onc2ccc(CN3CCN(/C(=N/c4ccccc4)NCCc4ccccc4)CC3)cc21` What is its recorded ID50?
Data returned: > 100 µM

Data request: Return reported ID50; argument: `[O-][n+]1onc2ccc(CN3CCN(/C(=N/c4ccccc4)Nc4ccccc4)CC3)cc21`
Data returned: 100 µM

Data request: What measured ID50 goes with `O=S(=O)(/C=C/c1ccc2no[n+]([O-])c2c1)c1ccccc1` ?
Data returned: > 50 µM

----------
Test: Selectivity index, ratio of ID50 for human RBC to ID50 for epimastigote stage of Trypanosoma cruzi Tulahuen 2
Measured Selectivity Index, listed per entry.
Write no unit; give the number alone.

Consider the following illustrative entries.
{"sample smiles": "[O-][n+]1onc2ccc(CN3CCN(/C(=N/c4ccccc4)NCCc4ccccc4)CC3)cc21", "measured": 31}
{"sample smiles": "[O-][n+]1onc2ccc(CN3CCN(/C(=N/c4ccccc4)Nc4ccccc4)CC3)cc21", "measured": 18}

Now consider a different compound.
Data request: Selectivity Index for `C[C@@H]1[C@H](O)[C@@H](C)/C=C/C=C/C=C/C=C/C=C/C=C/C=C/[C@H](O[C@@H]2O[C@H](C)[C@@H](O)[C@H](N)[C@@H]2O)C[C@@H]2O[C@](O)(C[C@@H](O)C[C@@H](O)[C@H](O)CC[C@@H](O)C[C@@H](O)CC(=O)O[C@H]1C)C[C@H](O)[C@H]2C(=O)O` ?
Data returned: 10

----------
Target: Cruzipain (Trypanosoma cruzi) (UniProt P25779)
Sequence (P25779 123-467 limits assumed): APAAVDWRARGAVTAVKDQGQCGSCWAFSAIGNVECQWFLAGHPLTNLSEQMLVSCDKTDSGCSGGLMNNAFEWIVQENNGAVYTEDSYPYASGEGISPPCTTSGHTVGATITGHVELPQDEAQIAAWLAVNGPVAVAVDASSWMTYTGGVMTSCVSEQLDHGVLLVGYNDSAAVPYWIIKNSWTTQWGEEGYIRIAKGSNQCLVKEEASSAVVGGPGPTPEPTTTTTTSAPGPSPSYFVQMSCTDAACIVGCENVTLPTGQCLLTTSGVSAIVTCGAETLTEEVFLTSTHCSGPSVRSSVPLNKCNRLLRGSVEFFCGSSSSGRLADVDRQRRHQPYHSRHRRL
Experiment: Inhibition of Trypanosoma cruzi cruzipain using Z-Phe-Arg-AMC as substrate at 100 uM at pH 7.4 after 10 mins by spectrofluorimetry relative to untreated control
The molecules listed here are annotated with their inhibition.
Answer in %, number only, no unit symbol.

Illustrative cases are given below, each with its answer.
{"sample smiles": "[O-][n+]1onc2ccc(CN3CCN(/C(=N/c4ccccc4)Nc4ccccc4)CC3)cc21", "measured property": "inhibition", "measured": 12}
{"sample smiles": "CC1(C)[N+]([O-])=c2ccc(CN3CCN(/C(=N/c4ccccc4)NCCc4ccccc4)CC3)cc2=[N+]1[O-]", "measured property": "inhibition", "measured": 30}

Data request: Which measured inhibition value corresponds to `[O-][n+]1onc2ccc(CN3CCN(/C(=N/c4ccccc4)NCc4ccco4)CC3)cc21` ?
Data returned: 0.3

Data request: Requested read-out: inhibition. Entry: `CC1(C)[N+]([O-])=c2ccc(CN3CCN(/C(=N/c4ccccc4)NCc4ccco4)CC3)cc2=[N+]1[O-]`
Data returned: 15

----------
Target: Cruzipain (Trypanosoma cruzi) (UniProt P25779)
Assay: Inhibition of Trypanosoma cruzi cruzipain using Z-Phe-Arg-AMC as substrate at 100 uM at pH 5.3 after 10 mins by spectrofluorimetry relative to untreated control
The following compounds are shown together with reported inhibition values.
// return numeric value only (unit: %, not printed)

{"sample smiles": "[O-][n+]1onc2ccc(CN3CCN(/C(=N/c4ccccc4)NCc4ccccc4)CC3)cc21", "tested target": "Cruzipain (Trypanosoma cruzi) (UniProt P25779)", "inhibition / %": 11}

Data request: Record lookup: for Cruzipain (Trypanosoma cruzi) (UniProt P25779), what inhibition belongs to `[O-][n+]1onc2ccc(CN3CCN(/C(=N/c4ccccc4)NCc4ccco4)CC3)cc21` ?
Data returned: 44

Data request: API: value(readout=inhibition, system=Cruzipain (Trypanosoma cruzi) (UniProt P25779)) for record `[O-][n+]1onc2ccc(CN3CCN(/C(=N/c4ccccc4)NCCc4ccccc4)CC3)cc21`
Data returned: 34

----------
Assay: Selectivity index, ratio of ID50 for human RBC to ID50 for epimastigote stage of Trypanosoma cruzi Tulahuen 2
measured property: Selectivity Index

The following compounds have reported results that may help.
{"compound": "[O-][n+]1onc2ccc(CN3CCN(/C(=N/c4ccccc4)NCc4ccco4)CC3)cc21", "measured": "> 13"}
{"compound": "CC1(C)[N+]([O-])=c2ccc(CN3CCN(/C(=N/c4ccccc4)NCCc4ccccc4)CC3)cc2=[N+]1[O-]", "measured": "> 50"}

Please examine the following record next.
Data request: Any idea what its Selectivity Index is? The compound is CC1CS(=O)(=O)CCN1/N=C/c1ccc([N+](=O)[O-])o1 (stereo not drawn) [NIFURTIMOX]
Data returned: > 13

----------
Biological target: Cruzipain (Trypanosoma cruzi)
Assay: Inhibition of Trypanosoma cruzi cruzipain using Z-Phe-Arg-AMC as substrate at 100 uM at pH 7.4 after 10 mins by spectrofluorimetry relative to untreated control
measured property: inhibition (%)
Answer in %, number only, no unit symbol.

Data request: Need inhibition, item `[O-][n+]1onc2ccc(CN3CCN(/C(=N/c4ccccc4)NCc4ccccc4)CC3)cc21`
Data returned: 29

Data request: Param item = `[O-][n+]1onc2ccc(CN3CCN(/C(=N/c4ccccc4)NCCc4ccccc4)CC3)cc21` ; retrieve measured inhibition.
Data returned: 25

Data request: Find the recorded inhibition belonging to `CC1(C)[N+]([O-])=c2ccc(CN3CCN(/C(=N/c4ccccc4)NCc4ccccc4)CC3)cc2=[N+]1[O-]` and report it.
Data returned: 34

----------
Target: Cruzipain (Trypanosoma cruzi)
Experiment: Inhibition of Trypanosoma cruzi cruzipain using Z-Phe-Arg-AMC as substrate at 100 uM at pH 5.3 after 10 mins by spectrofluorimetry relative to untreated control
// reported inhibition for each item listed
Write the number in % without appending the unit.

Data request: Given `[O-][n+]1onc2ccc(CN3CCN(/C(=N/c4ccccc4)Nc4ccccc4)CC3)cc21` , state its recorded inhibition.
Data returned: 47

Data request: Reported inhibition, compound `c1ccc(/N=C(/Nc2ccccc2)N2CCNCC2)cc1` : ____
Data returned: 6.3

Data request: GET /values?readout=inhibition&item= `c1ccc(C/N=C(/Nc2ccccc2)N2CCNCC2)cc1`
Data returned: 5.4

Data request: # lookup: inhibition of `c1ccc(N/C(=N/Cc2ccco2)N2CCNCC2)cc1`
Data returned: 10

Data request: Which value of inhibition has been reported for `c1ccc(CC/N=C(/Nc2ccccc2)N2CCNCC2)cc1` in the records?
Data returned: 3.2
